Cited source for all entries: patent US20240190874A1

# targetEntity: AR (Homo sapiens)
# Construct: Degradation of AR; Cellular potency; host or cells: VCaP cells
# Sequence (P10275 whole entry): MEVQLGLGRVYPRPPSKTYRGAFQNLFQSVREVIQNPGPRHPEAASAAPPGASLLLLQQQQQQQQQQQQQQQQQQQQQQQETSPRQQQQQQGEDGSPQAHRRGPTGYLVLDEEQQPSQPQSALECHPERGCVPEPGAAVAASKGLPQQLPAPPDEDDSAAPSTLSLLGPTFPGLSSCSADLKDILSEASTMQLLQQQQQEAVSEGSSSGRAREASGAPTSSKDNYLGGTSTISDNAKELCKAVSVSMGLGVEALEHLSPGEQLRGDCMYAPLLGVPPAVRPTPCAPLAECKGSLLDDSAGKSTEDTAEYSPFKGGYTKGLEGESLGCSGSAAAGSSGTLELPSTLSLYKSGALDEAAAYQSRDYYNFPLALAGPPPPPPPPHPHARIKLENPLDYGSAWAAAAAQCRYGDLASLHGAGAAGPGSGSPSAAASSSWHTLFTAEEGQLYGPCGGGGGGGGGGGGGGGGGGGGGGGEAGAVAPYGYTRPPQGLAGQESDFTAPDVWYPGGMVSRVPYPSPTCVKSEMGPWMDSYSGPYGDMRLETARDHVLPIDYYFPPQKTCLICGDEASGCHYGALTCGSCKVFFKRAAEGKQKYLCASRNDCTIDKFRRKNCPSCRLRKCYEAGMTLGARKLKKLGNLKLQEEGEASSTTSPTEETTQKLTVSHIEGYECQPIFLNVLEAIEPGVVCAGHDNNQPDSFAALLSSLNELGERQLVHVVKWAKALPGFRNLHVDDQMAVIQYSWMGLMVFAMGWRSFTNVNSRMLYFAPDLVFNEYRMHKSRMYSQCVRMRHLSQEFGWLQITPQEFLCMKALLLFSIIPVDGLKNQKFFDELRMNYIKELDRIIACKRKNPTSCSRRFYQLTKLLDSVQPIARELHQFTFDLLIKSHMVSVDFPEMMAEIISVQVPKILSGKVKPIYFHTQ
# protocolDetails: Degradation of AR in VCaP cells
# Assay type: cell-based
# conditionDescription: VCaP, VCaP cells
The entries below come with measured Dmax values attached.
quantityMeasured: Dmax

compound: C[C@H]1CC2(CCN(c3ccc(N4CCN(CC5(F)CN(c6ccc7c(c6)C(=O)N(C6CCC(=O)NC6=O)C7=O)C5)CC4)nc3)CC2)CN1c1ccc(C#N)c(Cl)c1 (stereo partly shown) [compound 86]
quantityMeasured: Dmax
reportedMeasurement: > 90%
--
compound: C[C@H]1CC2(CCN(c3ccc(N4CCN(C5CN(c6ccc7c(c6)C(=O)N(C6CCC(=O)NC6=O)C7=O)C5)CC4)cc3)CC2)CN1c1ccc(C#N)c(Cl)c1 (stereo partly shown) [compound 27]
quantityMeasured: Dmax
reportedMeasurement: > 90%
--
compound: C[C@H]1CC2(CCN(c3cnc(C(=O)N4CCN(C5CN(c6ccc7c(c6)C(=O)N(C6CCC(=O)NC6=O)C7=O)C5)CC4)s3)CC2)CN1c1ccc(C#N)c(Cl)c1 (stereo partly shown) [compound 137]
quantityMeasured: Dmax
reportedMeasurement: 70 to 90%
--
compound: C[C@H]1CC2(CCN(c3cnc(N4CCN(CC5CN(c6ccc7c(c6)C(=O)N(C6CCC(=O)NC6=O)C7=O)C5)CC4)nc3)CC2)CN1c1ccc(C#N)c(Cl)c1 (stereo partly shown) [compound 82]
quantityMeasured: Dmax
reportedMeasurement: > 90%
--
compound: C[C@H]1CC2(CCN(c3ccc(N4CCN(CC5CCN(c6ccc7c(c6)C(=O)N(C6CCC(=O)NC6=O)C7=O)CC5)CC4)cn3)CC2)CN1c1ccc(C#N)c(Cl)c1 (stereo partly shown) [compound 32]
quantityMeasured: Dmax
reportedMeasurement: > 90%
--
compound: C[C@H]1CC2(CCN(c3ccc(N4CCN(CC5CN(c6ccc7c(c6)C(=O)N(C6CCC(=O)NC6=O)C7=O)C5)CC4)cn3)CC2)CN1c1ccc(C#N)c(Cl)c1 (stereo partly shown) [compound 31]
quantityMeasured: Dmax
reportedMeasurement: > 90%
--
compound: C[C@H]1CC2(CCN(c3ccc(OC4CCN(C5CN(c6cc7c(cc6F)C(=O)N(C6CCC(=O)NC6=O)C7=O)C5)CC4)cn3)CC2)CN1c1ccc(C#N)c(Cl)c1 (stereo partly shown) [compound 132]
quantityMeasured: Dmax
reportedMeasurement: > 90%
--
compound: C[C@H]1CC2(CCN(c3ccc(OC4CN(C5CCN(c6ccc7c(c6)C(=O)N(C6CCC(=O)NC6=O)C7=O)CC5)C4)cn3)CC2)CN1c1ccc(C#N)c(Cl)c1 (stereo partly shown) [compound 70]
quantityMeasured: Dmax
reportedMeasurement: 50 to 70%
--
compound: C[C@H]1CC2(CCN(c3ccc(S(=O)(=O)N4CCC(CN5Cc6cc7c(cc6C5)C(=O)N(C5CCC(=O)NC5=O)C7=O)CC4)cc3)CC2)CN1c1ccc(C#N)c(Cl)c1 (stereo partly shown) [compound 3]
quantityMeasured: Dmax
reportedMeasurement: > 90%
--
compound: C[C@H]1CC2(CCN(c3ccc(N4CCC(OC5CN(c6ccc7c(c6)C(=O)N(C6CCC(=O)NC6=O)C7=O)C5)CC4)cc3)CC2)CN1c1ccc(C#N)c(Cl)c1 (stereo partly shown) [compound 90]
quantityMeasured: Dmax
reportedMeasurement: > 90%
--
compound: C[C@H]1CC2(CCN(c3ccc(N4CCN(CC5CCN(c6ccc7c(c6)C(=O)N(C6CCC(=O)NC6=O)C7=O)CC5)CC4)cc3)CC2)CN1c1ccc(C#N)c(Cl)c1 (stereo partly shown) [compound 30]
quantityMeasured: Dmax
reportedMeasurement: > 90%
--
compound: C[C@H]1CC2(CCN(c3ccc(CN4CCC(N5Cc6cc7c(cc6C5)C(=O)N(C5CCC(=O)NC5=O)C7=O)CC4)cc3)CC2)CN1c1ccc(C#N)c(Cl)c1 (stereo partly shown) [compound 19]
quantityMeasured: Dmax
reportedMeasurement: 70 to 90%
--
compound: C[C@H]1CC2(CCN(c3ccc(N4CCN(CC5CN(c6ccc7c(c6)C(=O)N(C6CCC(=O)NC6=O)C7=O)C5)CC4)cc3F)CC2)CN1c1ccc(C#N)c(Cl)c1 (stereo partly shown) [compound 37]
quantityMeasured: Dmax
reportedMeasurement: > 90%
--
compound: C[C@H]1CC2(CCN(c3ccc(OC4CCN(C5CN(c6ccc7c(c6)C(=O)N(C6CCC(=O)NC6=O)C7=O)C5)CC4)nn3)CC2)CN1c1ccc(C#N)c(Cl)c1 (stereo partly shown) [compound 62]
quantityMeasured: Dmax
reportedMeasurement: > 90%
--
compound: C=C1CCC(N2C(=O)c3ccc(N4CCC(N5CCN(Cc6ccc(N7CCC8(CC7)C[C@H](C)N(c7ccc(C#N)c(Cl)c7)C8)cc6)CC5)CC4)cc3C2=O)C(=O)N1 (stereo partly shown) [compound 18]
quantityMeasured: Dmax
reportedMeasurement: > 90%
--
compound: C[C@H]1CC2(CCN(c3ccc(S(=O)(=O)N4CCN(C5CN(c6ccc7c(c6)C(=O)N(C6CCC(=O)NC6=O)C7=O)C5)CC4)cc3)CC2)CN1c1ccc(C#N)c(Cl)c1 (stereo partly shown) [compound 2]
quantityMeasured: Dmax
reportedMeasurement: > 90%
--
compound: C[C@H]1CC2(CCN(c3ccc(C4CCN(CC5CN(c6ccc7c(c6)C(=O)N(C6CCC(=O)NC6=O)C7=O)C5)CC4)cc3)CC2)CN1c1ccc(C#N)c(Cl)c1 (stereo partly shown) [compound 21]
quantityMeasured: Dmax
reportedMeasurement: > 90%
--
compound: C=C1CCC(N2C(=O)c3ccc(N4CC(N5CCC(Cc6ccc(N7CCC8(CC7)C[C@H](C)N(c7ccc(C#N)c(Cl)c7)C8)cc6)CC5)C4)cc3C2=O)C(=O)N1 (stereo partly shown) [compound 23]
quantityMeasured: Dmax
reportedMeasurement: > 90%
--
compound: C[C@H]1CC2(CCN(c3ccc(N4CCN(CC5(F)CN(c6ccc7c(c6)C(=O)N(C6CCC(=O)NC6=O)C7=O)C5)CC4)cc3)CC2)CN1c1ccc(C#N)c(Cl)c1 (stereo partly shown) [compound 84]
quantityMeasured: Dmax
reportedMeasurement: > 90%
